# SYSTEM_UNDER_TEST: Stb5 (UniProt P38699)
# Sequence: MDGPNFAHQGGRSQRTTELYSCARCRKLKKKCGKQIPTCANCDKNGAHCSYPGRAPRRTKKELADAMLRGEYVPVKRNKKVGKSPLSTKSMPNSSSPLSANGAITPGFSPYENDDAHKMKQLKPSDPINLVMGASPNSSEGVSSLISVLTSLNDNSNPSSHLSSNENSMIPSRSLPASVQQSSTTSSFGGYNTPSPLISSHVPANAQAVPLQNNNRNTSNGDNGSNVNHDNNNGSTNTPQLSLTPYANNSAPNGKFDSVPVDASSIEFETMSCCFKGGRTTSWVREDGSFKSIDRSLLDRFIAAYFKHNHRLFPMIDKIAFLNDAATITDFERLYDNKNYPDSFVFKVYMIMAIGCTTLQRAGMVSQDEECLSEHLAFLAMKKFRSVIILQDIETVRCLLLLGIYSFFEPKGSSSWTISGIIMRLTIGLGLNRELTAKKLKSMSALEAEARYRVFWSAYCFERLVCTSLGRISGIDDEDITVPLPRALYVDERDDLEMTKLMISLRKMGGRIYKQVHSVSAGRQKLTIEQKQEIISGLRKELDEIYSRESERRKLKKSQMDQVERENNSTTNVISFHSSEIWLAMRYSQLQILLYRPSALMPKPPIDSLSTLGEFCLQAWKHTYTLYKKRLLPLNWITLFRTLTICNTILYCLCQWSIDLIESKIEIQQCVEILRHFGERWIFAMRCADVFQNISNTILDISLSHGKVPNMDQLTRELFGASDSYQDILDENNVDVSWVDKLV
# ASSAY_DETAILS: PBM E-score (8-mer binding enrichment) (E-score (-0.5 to 0.5)); higher = stronger / more preferred TF binding
# STATED_CONDITIONS: protein concentration: 200 nM; construct: GST-full length
The full ranking holds about 33,000 sequences; the median of “E-score (-0.5 to 0.5)” is about -0.054, and the highest 2% start at about 0.35. The sample holds the highest values, similar sequences and a random draw of the others, so the mix is not that of the screen.
MEASUREMENT_LABEL: PBM E-score
Give bare numbers.

Sample answers from the record:
Problem: Reported PBM E-score for CATAAGCG : what is it?
Result: 0.0871

Problem: Fill blank: measured PBM E-score of the sequence GAGTGGGC is ____.
Result: 0.0251

For the 7 sequences below, give their PBM E-score values.
1. CGTCCGTC
2. CTTTCACA
3. CATGCCGC
4. AGGTAACA
5. AGAGAACC
6. AGGGGGGA
7. AATGCCGC

Result:
[0.21, -0.0931, 0.312, -0.111, -0.125, -0.38, 0.448]

Could I get PBM E-score for every one of these entries?
1. ACGCAGAG
2. AGTTCAGC

Result:
1: -0.218; 2: -0.299

The following sequences each have a reported value; give each one's PBM E-score.
1. ACTGCCGC
2. ACTGGGGG
3. AGGAGCAC

Result:
[0.311, -0.28, -0.252]

====

# SYSTEM_UNDER_TEST: Stb5 (UniProt P38699)
# Sequence: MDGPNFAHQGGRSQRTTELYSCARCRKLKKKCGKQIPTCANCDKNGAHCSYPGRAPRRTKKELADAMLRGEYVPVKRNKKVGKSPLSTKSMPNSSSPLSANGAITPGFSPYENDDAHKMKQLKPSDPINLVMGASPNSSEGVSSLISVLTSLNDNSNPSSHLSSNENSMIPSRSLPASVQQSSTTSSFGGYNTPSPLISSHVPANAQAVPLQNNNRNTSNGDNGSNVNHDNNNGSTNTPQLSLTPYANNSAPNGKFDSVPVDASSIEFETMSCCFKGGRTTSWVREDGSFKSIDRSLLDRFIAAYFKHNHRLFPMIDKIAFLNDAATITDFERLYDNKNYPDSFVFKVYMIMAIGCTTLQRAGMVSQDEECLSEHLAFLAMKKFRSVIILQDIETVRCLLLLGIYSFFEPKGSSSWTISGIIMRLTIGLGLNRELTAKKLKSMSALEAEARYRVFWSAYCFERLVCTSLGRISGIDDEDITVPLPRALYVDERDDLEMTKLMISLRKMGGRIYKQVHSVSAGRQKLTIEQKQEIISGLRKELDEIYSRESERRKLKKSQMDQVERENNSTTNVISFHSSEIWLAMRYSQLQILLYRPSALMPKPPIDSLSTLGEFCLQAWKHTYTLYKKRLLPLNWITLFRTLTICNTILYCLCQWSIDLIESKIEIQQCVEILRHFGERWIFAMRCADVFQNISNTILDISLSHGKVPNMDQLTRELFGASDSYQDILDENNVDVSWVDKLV
# ASSAY_DETAILS: PBM E-score (8-mer binding enrichment) (E-score (-0.5 to 0.5)); higher = stronger / more preferred TF binding
# STATED_CONDITIONS: protein concentration: 200 nM; construct: GST-full length
In all, about 33,000 sequences were measured (“E-score (-0.5 to 0.5)”: median about -0.054, highest 2% from about 0.35 on). This excerpt belongs to a sample that is enriched for the highest values.
Kindly note that classification relies on PBM E-score with these boundaries: low: < -0.05; middle: ≥ -0.05 and < 0.1; high: ≥ 0.1

Problem: Which PBM E-score band matches AATCTCCG ?
Result: high

Problem: Field: class (PBM E-score) — entry: AATCACCA
Result: middle

Problem: Using the reported PBM E-score, which band applies to AAACTCCT ?
Result: middle

Problem: Band assignment needed for AAGTAGCG please.
Result: middle

Problem: Which category does the recorded PBM E-score put AAGCACCT in?
Result: low

Next:
Problem: Class (by measured PBM E-score) for CCAATTTA
Result: high

Problem: Exercise: read the entry ACCGTGGC and state which class it falls under.
Result: middle
